Attribution: patent US6908919B2

target: Human factor Xa (Homo sapiens, UniProt P00742); experiment: Xa Assay; assay type: biochemical; parameters: purchased Enzyme Research Laboratories, South Bend Ind; conditions: inhibitor at 100 µM
Sequence (P00742 41-179 limits assumed): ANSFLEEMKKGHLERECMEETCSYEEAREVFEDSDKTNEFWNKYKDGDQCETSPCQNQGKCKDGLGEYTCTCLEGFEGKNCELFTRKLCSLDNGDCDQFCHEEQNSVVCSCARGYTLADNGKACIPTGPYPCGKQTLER
Sequence (P00742 235-488 limits assumed): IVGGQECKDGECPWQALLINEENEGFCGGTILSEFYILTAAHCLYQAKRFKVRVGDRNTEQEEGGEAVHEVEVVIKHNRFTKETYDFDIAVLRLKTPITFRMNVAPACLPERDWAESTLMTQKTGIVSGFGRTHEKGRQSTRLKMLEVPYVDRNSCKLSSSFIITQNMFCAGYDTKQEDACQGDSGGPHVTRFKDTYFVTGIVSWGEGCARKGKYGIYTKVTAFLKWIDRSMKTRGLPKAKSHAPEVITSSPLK
READOUT_NAME: % Inhibition Factor Xa (100 µM) (%)

# example entries with known answers
stdin: Tell me its % Inhibition Factor Xa (100 µM) given O=C(Cn1c(-c2cccc(Cl)c2)c(Cl)nc(NCCc2cccc(Cl)c2)c1=O)NCCc1cccnc1 [Example E-0080] as the entry.
stdout: 4

stdin: Tell me its % Inhibition Factor Xa (100 µM) given `COc1ccc(-c2c(Cl)nc(NCCc3cccnc3)c(=O)n2CC(=O)NCCc2ccncc2)cc1` as the entry.
stdout: 0

stdin: Tell me its % Inhibition Factor Xa (100 µM) given O=C(Cn1c(-c2ccc(Cl)cc2)c(Cl)nc(NCCc2ccncc2)c1=O)NCCc1ccncc1 [Example E-0022] as the entry.
stdout: 0

stdin: Tell me its % Inhibition Factor Xa (100 µM) given O=C(Cn1c(-c2ccc(Cl)cc2)c(Cl)nc(NCCc2cccc(Cl)c2)c1=O)NCCc1ccncc1 [Example E-0027] as the entry.
stdout: 0

stdin: Tell me its % Inhibition Factor Xa (100 µM) given O=C(Cn1c(-c2cccc(Cl)c2)c(Cl)nc(NCc2ccccc2)c1=O)NCCc1cccnc1 [Example E-0086] as the entry.
stdout: 4

stdin: Tell me its % Inhibition Factor Xa (100 µM) given COc1ccc(-c2c(Cl)nc(NCc3ccccc3)c(=O)n2CC(=O)NCCc2ccncc2)cc1 [Example E-0097] as the entry.
stdout: 3

stdin: Tell me its % Inhibition Factor Xa (100 µM) given `O=C(Cn1c(Cc2ccccc2)c(Cl)nc(NCCc2ccc(Cl)cc2)c1=O)NCCc1ccncc1` as the entry.
stdout: 0

stdin: Tell me its % Inhibition Factor Xa (100 µM) given `O=C(Cn1c(-c2ccccc2)c(Cl)nc(NCCc2ccncc2)c1=O)NCCc1ccncc1` as the entry.
stdout: 0

stdin: Tell me its % Inhibition Factor Xa (100 µM) given `O=C(Cn1c(CCc2ccccc2)c(Cl)nc(NCCc2ccc(Cl)cc2)c1=O)NCCc1ccncc1` as the entry.
stdout: 0

stdin: Tell me its % Inhibition Factor Xa (100 µM) given `O=C(Cn1c(Cc2ccccc2)c(Cl)nc(NCCc2ccncc2)c1=O)NCCc1ccncc1` as the entry.
stdout: 0

a. O=C(Cn1c(CCc2ccccc2)c(Cl)nc(NCCN2CCOCC2)c1=O)NCCc1ccncc1
b. O=C(Cn1c(-c2cccc(Cl)c2)c(Cl)nc(NCCc2ccc(Cl)cc2)c1=O)NCCc1cccnc1 [Example E-0095]
stdin: Of a and b , which shows the smaller % Inhibition Factor Xa (100 µM) value? Output the label that corresponds to your choice.
stdout: a

* * *

molecular target: Human factor Xa (Homo sapiens); experiment: Xa Assay; assay type: biochemical; design: purchased Enzyme Research Laboratories, South Bend Ind; conditions: at 30 µM inhibitor
READOUT_NAME: % Inhibition Factor Xa (30 µM) (%)

# example entries with known answers
stdin: Tell me its % Inhibition Factor Xa (30 µM) given Cc1cccc(Cl)c1CNc1nc(Cl)c(-c2ccccc2)n(CC(=O)NCc2ccc(C(=N)N)cc2)c1=O [1512-31] as the entry.
stdout: 14

stdin: Tell me its % Inhibition Factor Xa (30 µM) given N=C(N)c1ccc(CNC(=O)C(Cc2ccccc2)n2c(-c3ccccc3)c(Cl)nc(NC3CCC3)c2=O)cc1 (stereo not drawn) [Example 1517-08] as the entry.
stdout: 0

stdin: Tell me its % Inhibition Factor Xa (30 µM) given COC(=O)c1cc(N)cc(-c2cnc(NC3CCC3)c(=O)n2CC(=O)NCc2ccc(C(=N)N)cc2)c1 [Example 117] as the entry.
stdout: 18

stdin: Tell me its % Inhibition Factor Xa (30 µM) given N=C(N)c1ccc(CNC(=O)Cn2c(-c3ccc(Cl)cc3)c(Cl)nc(NCc3ccncc3)c2=O)cc1 [1471-19] as the entry.
stdout: 26

stdin: Tell me its % Inhibition Factor Xa (30 µM) given N=C(N)c1ccc(CNC(=O)Cn2c(-c3ccccc3)c(Cl)nc(NC3Cc4ccccc4C3)c2=O)cc1 [1507-08] as the entry.
stdout: 1

I. CCc1c(Cl)nc(NCCc2cccc(Cl)c2)c(=O)n1CC(=O)NCc1ccc(C(=N)N)cc1 [1471-62]
II. N=C(N)c1ccc(CNC(=O)Cn2c(-c3ccccc3)c(Cl)nc(NCCc3ccc(Cl)c(Cl)c3)c2=O)cc1 [1507-44]
stdin: Endpoint returns whichever of I and II has the numerically higher % Inhibition Factor Xa (30 µM). Output the label that corresponds to your choice.
stdout: II
(II: 9%, I: 0%)
